MEASURED_TARGET: full-length human Mineralocorticoid Receptor (MR) (Homo sapiens)
Construct: host or cells: PathHunter CHO-K1 cells
TEST: human MR NH Pro assay (PathHunter Protein:Protein interaction assay), MR antagonist activity
Format: cell-based
REPORTED_CONDITIONS: PathHunter CHO-K1 cells overexpressing human MR; aldosterone about 0.3 nM; 6 hours at 37° C.; luminescence; read-out: Primary Assay IP rating (IP = inflection point for a given dose-response titration curve)
Recorded measurements of IC50, one per entry

CCC(c1ccc(Cl)cc1)(c1noc(-c2ccc(F)cc2)n1)n1ccc2c(NS(C)(=O)=O)cccc21 (centres unmarked) [Compound 59] yielded IC50 of < 100 nM

CCC(CO)(c1ccc(Cl)cc1Cl)n1ccc2c(NS(C)(=O)=O)cccc21 (centres unmarked) [Compound 87] yielded IC50 of 100 to 500 nM

Continuing:
CCC(COC)(c1ccc(Cl)cc1)n1ccc2c(NS(C)(=O)=O)cccc21 (single isomer, unassigned) [Compound 96] yielded IC50 of < 100 nM

CCC(CO)(c1ccc(Cl)cc1)n1ccc2c(NS(C)(=O)=O)cc(F)cc21 (centres unmarked) [Compound 85] yielded IC50 of 100 to 500 nM

CCC(C(C)=O)(c1ccc(Cl)cc1)n1ncc2c(NS(C)(=O)=O)cccc21 (single isomer, unassigned) [Compound 101] yielded IC50 of 100 to 500 nM

CCC(C(C)=O)(c1ccc(Cl)cc1)n1ccc2c(NS(C)(=O)=O)cccc21 (centres unmarked) [Compound 99] yielded IC50 of < 100 nM

COC(=O)C(c1ccc(Cl)cc1)n1ccc2c([N+](=O)[O-])cccc21 (centres unmarked) [Compound 1] yielded IC50 of 500 to 5000 nM

* * *

MEASURED_TARGET: full-length human Mineralocorticoid Receptor (MR) (Homo sapiens, UniProt P08235)
Construct: host or cells: PathHunter CHO-K1 cells
Sequence (P08235 1-984): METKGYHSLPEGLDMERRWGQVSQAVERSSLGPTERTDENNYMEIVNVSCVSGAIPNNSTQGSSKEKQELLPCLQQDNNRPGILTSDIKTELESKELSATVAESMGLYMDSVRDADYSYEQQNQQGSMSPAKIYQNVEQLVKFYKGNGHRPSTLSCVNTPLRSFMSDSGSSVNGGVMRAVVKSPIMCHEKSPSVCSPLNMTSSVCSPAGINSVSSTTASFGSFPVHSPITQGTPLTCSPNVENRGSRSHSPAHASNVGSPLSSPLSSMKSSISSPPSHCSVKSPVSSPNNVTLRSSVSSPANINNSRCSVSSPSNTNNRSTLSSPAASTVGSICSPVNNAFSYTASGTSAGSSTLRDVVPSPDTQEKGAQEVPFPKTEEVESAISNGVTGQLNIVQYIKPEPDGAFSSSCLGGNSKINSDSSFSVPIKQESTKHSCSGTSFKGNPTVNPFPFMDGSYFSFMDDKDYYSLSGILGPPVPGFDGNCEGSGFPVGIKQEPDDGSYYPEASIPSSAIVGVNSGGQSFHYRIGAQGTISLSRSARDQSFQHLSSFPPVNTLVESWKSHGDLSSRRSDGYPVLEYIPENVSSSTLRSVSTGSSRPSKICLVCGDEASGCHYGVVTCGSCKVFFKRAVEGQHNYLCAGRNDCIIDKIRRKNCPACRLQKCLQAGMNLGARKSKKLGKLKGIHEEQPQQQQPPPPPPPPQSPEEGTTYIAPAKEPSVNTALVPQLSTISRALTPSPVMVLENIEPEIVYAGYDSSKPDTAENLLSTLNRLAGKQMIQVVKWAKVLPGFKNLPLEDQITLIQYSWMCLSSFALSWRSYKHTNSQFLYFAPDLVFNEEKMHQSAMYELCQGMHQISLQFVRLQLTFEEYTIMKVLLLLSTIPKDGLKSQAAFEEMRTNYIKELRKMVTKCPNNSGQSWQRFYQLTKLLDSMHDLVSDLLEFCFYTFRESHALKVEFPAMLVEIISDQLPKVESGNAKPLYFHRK
TEST: human MR NH Pro assay (PathHunter Protein:Protein interaction assay), MR antagonist activity
Type: cell-based
REPORTED_CONDITIONS: PathHunter CHO-K1 cells overexpressing human MR; aldosterone about 0.3 nM; 6 hours at 37° C.; luminescence; read-out: Primary Assay IP rating (IP = inflection point for a given dose-response titration curve)
pIC50: −log10 of the molar value.
VALUE_TYPE: pIC50

Record excerpt, results attached:
So the reported pIC50 for CCC(C#N)(c1ccc(Cl)cc1)n1ccc2c(NS(=O)(=O)CC)cccc21 (stereo not shown) , on full-length human Mineralocorticoid Receptor (MR) (Homo sapiens, UniProt P08235), turned out to be 6.30 to 7.00

So the reported pIC50 for COC(=O)C(c1ccc(Cl)cc1)n1ncc2c(NS(C)(=O)=O)cccc21 (stereo not shown) , on full-length human Mineralocorticoid Receptor (MR) (Homo sapiens, UniProt P08235), turned out to be 5.30 to 6.30

So the reported pIC50 for CCC(c1ccc(Cl)cc1)(c1nc(C#N)no1)n1ncc2c(NS(C)(=O)=O)cccc21 (stereo not shown) , on full-length human Mineralocorticoid Receptor (MR) (Homo sapiens, UniProt P08235), turned out to be > 7.00

So the reported pIC50 for CCC(/C=C/C#N)(c1ccc(OC)cc1)n1ccc2c(NS(C)(=O)=O)cccc21 (stereo not shown) , on full-length human Mineralocorticoid Receptor (MR) (Homo sapiens, UniProt P08235), turned out to be > 7.00

So the reported pIC50 for CCC(CCCF)(c1ccc(Cl)cc1)n1ccc2c(NS(C)(=O)=O)cccc21 (stereo not shown) , on full-length human Mineralocorticoid Receptor (MR) (Homo sapiens, UniProt P08235), turned out to be > 7.00

So the reported pIC50 for CCC(c1ccc(Cl)cc1)(c1nnc(-c2ccc(OC)cc2)o1)n1ccc2c(NS(C)(=O)=O)cccc21 (stereo not shown) , on full-length human Mineralocorticoid Receptor (MR) (Homo sapiens, UniProt P08235), turned out to be 6.30 to 7.00

Then this compound:
So the reported pIC50 for CCC(C1=C(C#N)CCO1)(c1ccc(Cl)cc1)n1ccc2c(NS(C)(=O)=O)cccc21 (stereo not shown) , on full-length human Mineralocorticoid Receptor (MR) (Homo sapiens, UniProt P08235), turned out to be 6.30 to 7.00

* * *

MEASURED_TARGET: full-length human Mineralocorticoid Receptor (MR) (Homo sapiens, UniProt P08235)
Construct: host or cells: PathHunter CHO-K1 cells
TEST: human MR NH Pro assay (PathHunter Protein:Protein interaction assay), MR antagonist activity
Type: cell-based
REPORTED_CONDITIONS: PathHunter CHO-K1 cells overexpressing human MR; aldosterone about 0.3 nM; 6 hours at 37° C.; luminescence; read-out: Primary Assay IP rating (IP = inflection point for a given dose-response titration curve)
pIC50: −log10 of the molar value.
VALUE_TYPE: pIC50

Record excerpt, results attached:
So the reported pIC50 for CCC(CCC(C)=O)(c1ccc(Cl)cc1)n1ncc2c(NS(C)(=O)=O)cccc21 (stereo not shown) [Compound 172] , on full-length human Mineralocorticoid Receptor (MR) (Homo sapiens, UniProt P08235), turned out to be > 7.00

So the reported pIC50 for CC[C@](C(=O)NC1CC1)(c1ccc(Cl)cc1)n1ccc2c(NS(C)(=O)=O)cccc21 [Compound 41] , on full-length human Mineralocorticoid Receptor (MR) (Homo sapiens, UniProt P08235), turned out to be 6.30 to 7.00

So the reported pIC50 for CCc1noc(C(CC)(c2ccc(Cl)cc2)n2ccc3c(NS(C)(=O)=O)cccc32)n1 (single isomer, unassigned) [Compound 151] , on full-length human Mineralocorticoid Receptor (MR) (Homo sapiens, UniProt P08235), turned out to be > 7.00

So the reported pIC50 for CCC(C(C)=O)(c1ccc(Cl)cc1)n1ccc2c(NS(C)(=O)=O)cc(F)cc21 (stereo not shown) [Compound 98] , on full-length human Mineralocorticoid Receptor (MR) (Homo sapiens, UniProt P08235), turned out to be > 7.00

So the reported pIC50 for CCn1nnc(C(CC)(c2ccc(Cl)cc2)n2ccc3c(NS(C)(=O)=O)cccc32)n1 (single isomer, unassigned) [Compound 179] , on full-length human Mineralocorticoid Receptor (MR) (Homo sapiens, UniProt P08235), turned out to be > 7.00

Continuing:
So the reported pIC50 for COC(=O)C(c1ccc(F)cc1Cl)n1ccc2cc(C#N)ccc21 (stereo not shown) [Compound 11] , on full-length human Mineralocorticoid Receptor (MR) (Homo sapiens, UniProt P08235), turned out to be 5.30 to 6.30

So the reported pIC50 for CCC(CC(F)(F)F)(c1ccc(Cl)cc1)n1ncc2c(NS(C)(=O)=O)cccc21 (stereo not shown) [Compound 159] , on full-length human Mineralocorticoid Receptor (MR) (Homo sapiens, UniProt P08235), turned out to be > 7.00

So the reported pIC50 for CCC(c1ccc(Cl)cc1)(c1nc(-c2ccccc2)co1)n1ccc2c(NS(C)(=O)=O)cccc21 (stereo not shown) [Compound 77] , on full-length human Mineralocorticoid Receptor (MR) (Homo sapiens, UniProt P08235), turned out to be 5.30 to 6.30

So the reported pIC50 for CS(=O)(=O)Nc1cccc2c1ccn2C1(c2ccc(Cl)cc2)CCNC1=O (stereo not shown) [Compound 84] , on full-length human Mineralocorticoid Receptor (MR) (Homo sapiens, UniProt P08235), turned out to be 6.30 to 7.00

So the reported pIC50 for CCC(C(=O)NCC#N)(c1ccc(Cl)cc1)n1ccc2c(NS(C)(=O)=O)cccc21 (stereo not shown) [Compound 149] , on full-length human Mineralocorticoid Receptor (MR) (Homo sapiens, UniProt P08235), turned out to be > 7.00

So the reported pIC50 for CCC(CC#N)(c1ccc(C(F)(F)F)cc1)n1ccc2c(NS(C)(=O)=O)cccc21 (stereo not shown) [Compound 126] , on full-length human Mineralocorticoid Receptor (MR) (Homo sapiens, UniProt P08235), turned out to be > 7.00
